Tested on: HEPG2
Experiment: Euclidean distance of Cell Painting phenotypic profile (signed KS, 77 features) to DMSO centroid (dimensionless distance); 5 or 10 uM (library dependent); higher = stronger phenotypic change vs DMSO (phenoactivity)
Settings: 48 h
Counter-ions that a name gives are not always drawn.
Quick reference for Euclidean distance among some compounds
A bare number is all that is needed in reply.

Please review the entries below; each comes with its answer.
Cc1ccc(Sc2ccccc2N2CCNCC2)c(C)c1
5.06
Cc1cccc(Nc2ccccc2C(=O)O)c1C
0.673
CC1=C(/C=C/C(C)=C/C=C/C(C)=C/C(=O)O)C(C)(C)CCC1
1.21
NC(=O)c1cnccn1 [Pyrazinamide]
1.95
C[C@@H](O)[C@H]1C(=O)N2C(C(=O)O)=C(S[C@@H]3CN[C@H](CNS(N)(=O)=O)C3)[C@H](C)[C@H]12
0.434

Query block: Give Euclidean distance for C[C@@H]1CCO[C@H]2Cn3cc(C(=O)NCc4ccc(F)cc4F)c(=O)c(O)c3C(=O)N12
Result block: 1.37

Query block: Give Euclidean distance for Cc1ccnc(NS(=O)(=O)c2ccc(N)cc2)n1
Result block: 0.67

Query block: Give Euclidean distance for CN(C)CCC=C1c2ccccc2CCc2ccccc21 [Amitriptyline HCl]
Result block: 1.48

Query block: Give Euclidean distance for CC(C(=O)O)c1ccc(CC2CCCC2=O)cc1 (centres undefined)
Result block: 0.384

---

System: HEPG2
Experiment: Euclidean distance of Cell Painting phenotypic profile (signed KS, 77 features) to DMSO centroid (dimensionless distance); 5 or 10 uM (library dependent); higher = stronger phenotypic change vs DMSO (phenoactivity)
Conditions: 48 h
Where a name gives a salt, the structure may show the parent alone.
Everything with Euclidean distance lower than 0.7 is class 0; everything else, including exactly 0.7, is class 1.

CC(C)(C)C#Cc1cc(N(C(=O)[C@H]2CC[C@H](C)CC2)[C@H]2CC[C@H](O)CC2)c(C(=O)O)s1 [VX-222 (VCH-222. Lomibuvir)]
class 1
N=C(N)NC(=N)N1CCOCC1 [Moroxydine HCl]
class 0
CCc1cnn2c(NCc3ccc[n+]([O-])c3)cc(N3CCCC[C@H]3CCO)nc12
class 1
CCOC(=O)N1c2ccc(C(F)(F)F)cc2[C@@H](N(Cc2cc(C(F)(F)F)cc(C(F)(F)F)c2)C(=O)OC)C[C@H]1CC [Torcetrapib]
class 0
CCn1c(=O)c2c(nc(/C=C/c3ccc(OC)c(OC)c3)n2C)n(CC)c1=O [Istradefylline]
class 1
Cn1c(=O)c2[nH]cnc2n(C)c1=O [Aminophylline]
class 0
CNC(=O)c1cc(Oc2ccc(NC(=O)Nc3ccc(Cl)c(C(F)(F)F)c3)c(F)c2)ccn1 [Regorafenib (BAY 73-4506)]
class 1
NC(=O)OCC(COC(N)=O)c1ccccc1 [Felbamate]
class 0
CCn1c(N)c(C(=O)NC)c(=O)c2ccc(C#CC(C)(O)COC)nc21 (stereo not drawn)
class 1
NC(=S)N/N=C/c1ncccc1N [Triapine]
class 1

Query block: API: above_or_equal(metric=Euclidean distance, cutoff=0.7) for item CO/N=C(\C(=O)N[C@@H]1C(=O)N2C(C(=O)[O-])=C(C[n+]3cccc4c3CCC4)CS[C@H]12)c1csc(N)n1 [Cefpirome sulfate]
Result block: class 0

Query block: API: above_or_equal(metric=Euclidean distance, cutoff=0.7) for item Cc1ccc(Nc2c(F)cccc2Cl)c(CC(=O)O)c1 [Lumiracoxib]
Result block: class 0

Query block: API: above_or_equal(metric=Euclidean distance, cutoff=0.7) for item CN1CCC(OC(c2ccccc2)c2ccccc2)CC1 [Diphenylpyraline hydrochloride]
Result block: class 0

Query block: API: above_or_equal(metric=Euclidean distance, cutoff=0.7) for item COc1cc(N)c(Cl)cc1C(=O)NC1CCN(Cc2ccccc2)CC1 [Clebopride (malate)]
Result block: class 0

Query block: API: above_or_equal(metric=Euclidean distance, cutoff=0.7) for item Cn1ncnc1[C@H]1c2n[nH]c(=O)c3cc(F)cc(c23)N[C@@H]1c1ccc(F)cc1
Result block: class 1

Query block: API: above_or_equal(metric=Euclidean distance, cutoff=0.7) for item CC[C@H](C)C(=O)O[C@H]1CCC=C2C=C[C@H](C)[C@H](CC[C@@H]3C[C@@H](O)CC(=O)O3)[C@H]21 [Mevastatin]
Result block: class 1

Query block: API: above_or_equal(metric=Euclidean distance, cutoff=0.7) for item O=C(/C=C/c1ccc(O)cc1)c1ccc(O)cc1O [Isoliquiritigenin]
Result block: class 1

Query block: API: above_or_equal(metric=Euclidean distance, cutoff=0.7) for item COC(=O)C1=C(C)NC(C)=C(C(=O)OCC(C)C)C1c1ccccc1[N+](=O)[O-] (stereo not drawn) [Nisoldipine]
Result block: class 1

Query block: API: above_or_equal(metric=Euclidean distance, cutoff=0.7) for item CCN(CC)C(=O)/C(C#N)=C/c1cc(O)c(O)c([N+](=O)[O-])c1 [Entacapone]
Result block: class 0

Query block: API: above_or_equal(metric=Euclidean distance, cutoff=0.7) for item CC(CN1c2ccccc2Sc2ccccc21)N(C)C (stereo not drawn) [Promethazine HCl]
Result block: class 1

Query block: API: above_or_equal(metric=Euclidean distance, cutoff=0.7) for item CN(C)C(=O)c1cc2cnc(Nc3ccc(N4CCNCC4)cn3)nc2n1C1CCCC1
Result block: class 1

Query block: API: above_or_equal(metric=Euclidean distance, cutoff=0.7) for item Clc1ccc(C(c2ccccc2Cl)C(Cl)Cl)cc1 (stereo not drawn) [Mitotane]
Result block: class 1

Query block: API: above_or_equal(metric=Euclidean distance, cutoff=0.7) for item CC(=O)OC1CC2CCC1(C)C2(C)C (stereo not drawn) [Bornyl acetate]
Result block: class 1

Query block: API: above_or_equal(metric=Euclidean distance, cutoff=0.7) for item O=S(=O)(O)CCSSCCS(=O)(=O)O [Dimesna]
Result block: class 1

Query block: API: above_or_equal(metric=Euclidean distance, cutoff=0.7) for item COc1ccc(-c2ccc3ncc4c(c3c2)n(-c2ccc(N3CCNCC3)c(C(F)(F)F)c2)c(=O)n4C)cn1
Result block: class 1

Query block: API: above_or_equal(metric=Euclidean distance, cutoff=0.7) for item CC1(C)[C@@H](O[C@H]2O[C@H](C(=O)O)[C@@H](O)[C@H](O)[C@H]2O[C@@H]2O[C@H](C(=O)O)[C@@H](O)[C@H](O)[C@H]2O)CC[C@]2(C)[C@H]3C(=O)C=C4[C@@H]5C[C@@](C)(C(=O)O)CC[C@]5(C)CC[C@@]4(C)[C@]3(C)CC[C@@H]12 [Diammonium Glycyrrhizinate]
Result block: class 0
